src = patent US20240109974A1

- study target: T1, Human TNFR2-His (Sino 10417-H08H) (human, UniProt P20333 23-257)
- T1 construct: Bought protein; also called recombinant human TNFR2 protein; not shown: His tag
- T1 sequence (looked up): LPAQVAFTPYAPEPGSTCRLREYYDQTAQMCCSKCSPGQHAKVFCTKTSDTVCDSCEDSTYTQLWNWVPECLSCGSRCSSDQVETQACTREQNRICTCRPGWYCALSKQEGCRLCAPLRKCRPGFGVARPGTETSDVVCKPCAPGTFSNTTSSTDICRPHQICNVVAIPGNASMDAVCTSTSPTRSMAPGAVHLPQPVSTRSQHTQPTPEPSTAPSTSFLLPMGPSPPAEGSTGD
- test description: ELISA, human TNFR2-His coated; EC50 against 001-WT
- Procedure: The test humanized antibody against TNFR2 (as described in Example 1, the antibody was comprised of variable regions linked to IgG-Fc; the WT chimeric antibody also adopted the IgG-Fc structure) was subjected to 3.33-fold gradient dilution, loaded with 100 μl/well, and incubated with shaking at room temperature for 1.5 hours. […] A stop solution was added to stop the reaction, and then a microplate reader (MD 13) was used to read the absorbance value. […]
Assignment: determine reported % Relative activity (WT antibody/test antibody) for the given binders.
Quick note: unit goes after the number.

Prompt line: Using the record for 001-Hu5 (antibody, V domains shown, Humanized form of #001; also called VH1 + VL4) VH: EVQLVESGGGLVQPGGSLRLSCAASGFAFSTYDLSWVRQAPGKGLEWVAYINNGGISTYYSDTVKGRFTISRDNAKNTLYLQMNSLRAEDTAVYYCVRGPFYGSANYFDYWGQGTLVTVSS VL: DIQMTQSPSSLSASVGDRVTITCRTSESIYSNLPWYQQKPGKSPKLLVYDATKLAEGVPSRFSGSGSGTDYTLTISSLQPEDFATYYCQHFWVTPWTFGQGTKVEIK , report its % Relative activity (WT antibody/test antibody).
Response line: 100%

Prompt line: Also, 001-Hu4 (antibody, V domains shown, Humanized form of #001; also called VH2 + VL4) VH: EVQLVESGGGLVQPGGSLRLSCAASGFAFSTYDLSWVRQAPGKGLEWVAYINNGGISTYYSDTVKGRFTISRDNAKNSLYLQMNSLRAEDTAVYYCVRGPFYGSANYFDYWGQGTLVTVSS VL: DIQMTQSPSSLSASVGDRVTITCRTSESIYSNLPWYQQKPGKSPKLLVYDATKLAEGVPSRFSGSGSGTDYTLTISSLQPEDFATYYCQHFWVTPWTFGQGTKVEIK please.
Response line: 109%

Prompt line: Also, 001-Hu2 (antibody, V domains shown, Humanized form of #001; also called VH2 + VL2) VH: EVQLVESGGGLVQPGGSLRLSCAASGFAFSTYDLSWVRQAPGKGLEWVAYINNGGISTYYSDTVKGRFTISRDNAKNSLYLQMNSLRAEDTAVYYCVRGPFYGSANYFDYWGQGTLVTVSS VL: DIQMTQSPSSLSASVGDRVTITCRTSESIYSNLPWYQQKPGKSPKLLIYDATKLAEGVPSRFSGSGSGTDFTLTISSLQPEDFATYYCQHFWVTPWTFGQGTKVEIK please.
Response line: 102%

Prompt line: Also, 001-Hu3 (antibody, V domains shown, Humanized form of #001; also called VH1 + VL3) VH: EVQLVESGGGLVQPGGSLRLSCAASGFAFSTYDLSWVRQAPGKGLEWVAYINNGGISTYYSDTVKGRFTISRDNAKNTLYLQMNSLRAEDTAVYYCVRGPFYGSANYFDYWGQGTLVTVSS VL: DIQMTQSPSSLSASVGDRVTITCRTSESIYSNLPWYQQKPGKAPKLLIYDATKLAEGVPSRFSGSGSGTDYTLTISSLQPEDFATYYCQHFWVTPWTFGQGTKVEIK please.
Response line: 101%
